The origin of these recorded values is PubChem BioAssay.

assay_explanation: forskolin-driven CRE-LacZ activity in PC12 – cell-based, CRE-LacZ reporter, forskolin-stimulated, primary screen (AID 1146);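 also: PC12 cells with 6xCRE LacZ reporter stimulated by forskolin 10 µM; beta-galactosidase reporter signal reflecting CREB driven transcription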
experimental_context: luminescence, 4.5 h, higher = more signal, called active from +8 up or from −8 down
Measured z-score, listed per entry for reference.
property: z-score

>>> value("C=CCNC(=O)[C@@H]1[C@H]2C(=O)O[C@H](c3ccccc3)[C@H](c3ccccc3)N2[C@H](c2ccccc2OCCO)[C@@]12C(=O)Nc1ccc(C#CCCO)cc12")
-1.17
>>> value("COC(=O)[C@@]1(Cc2ccc(OC)cc2)[C@H]2c3cc(C(=O)N(C)C)n(Cc4ccc(C)o4)c3C[C@H]2CN1C(=O)c1ccccc1")
-0.46
>>> value("COc1cc(NN2C(C(O)c3ccco3)C=CC3C(=O)N(C)C(=O)C32)cc(OC)c1OC (stereo not given)")
1.06
>>> value("OCCCC1=CC(c2ccc(CN3CCCC3)cc2)N(Cc2cc3c(cc2Br)OCO3)CC1 (stereo not given)")
0.821
>>> value("CN(C)C(=O)[C@@]1(Cc2ccccc2CN=[N+]=[N-])N=C(c2ccc(OCCCO)cc2)O[C@H]1c1ccccc1N=[N+]=[N-]")
-1.69
